Biological target: HLA-DR13 (DRB1*1301) (Homo sapiens, UniProt P01903+P01911, A100E/A169T/K41T/L162R/M171V/P40S/Q125H/Q178H/Q39Y/Q99D/R42S/S66N/T262R/W38E/Y61H)
Test: Competitive HLA II/peptide binding assay, HLA-DR13
Details: DRB1*1301; tracer 100 nM; pH 4.5; 72 h; read-out: IC50 (nM) of nonbiotinylated tracer peptide
No end group written: not given here.
Measured property: IC50 (nM)
Numbers only, in nM.

Exam item: Return reported IC50. Input sequence: TERVRLVTRHIYNREE [B1 21-36, reference compound]
Marked response: 800

----------
Target: HLA-DR15 (DRB1*1501) (Homo sapiens, UniProt P01903+P01911)
Assay: Competitive HLA II/peptide binding assay, HLA-DR15
Details: competition with biotinylated tracer; 3 independent experiments
No end group written: not given here.
Measured property: pIC50
Answers are plain numbers, as −log10 of the molar value.

GEFLKLDRERAKNKI [99-113, G E F L K L D R E R A K N K I] = 5.92
KEFEETAKKVRRAIE [122-136, K E F E E T A K K V R R A I E] = 5.92

Now look at this one.
Exam item: Please supply the value of reported pIC50 for the item KKQFEELTLGEFLKL [peptide 90-104, K K Q F E E L T L G E F L K L]
Marked response: 5.12

----------
For each entry below, report its No. of molecules fixed value.
Test system: 12 predominant HLA II molecules
Assay: Binding to the 12 predominant HLA II molecules, summary
Set-up: species or system human
Settings: number of the 12 predominant HLA II molecules bound (IC50 < 1000 nM)
Numbers only.

CC(C)C[C@H](NC(=O)[C@H](Cc1ccccc1)NC(=O)[C@H](CCC(=O)O)NC(=O)CNC(=O)[C@H](CC(C)C)NC(=O)[C@@H](NC(=O)[C@H](CC(C)C)NC(=O)[C@H](CCC(=O)O)NC(=O)[C@H](CCC(=O)O)NC(=O)[C@@H](N)Cc1ccccc1)[C@@H](C)O)C(=O)N[C@@H](CCCCN)C(=O)N[C@@H](CC(C)C)C(=O)N[C@@H](CC(=O)O)C(=O)N[C@@H](CCCNC(=N)N)C(=O)N[C@@H](CCC(=O)O)C(=O)O [peptide 93-107, F E E L T L G E F L K L D R E] = 6

Then there is this compound:
Exam item: Determine from records and report No. of molecules fixed for `CC[C@H](C)[C@H](NC(=O)[C@H](CCCNC(=N)N)NC(=O)[C@H](Cc1c[nH]cn1)NC(=O)[C@H](CC(=O)O)NC(=O)[C@H](CCCCN)NC(=O)[C@H](CC(C)C)NC(=O)[C@H](Cc1ccccc1)NC(=O)[C@@H]1CCCN1C(=O)[C@H](CCC(N)=O)NC(=O)[C@H](Cc1c[nH]c2ccccc12)NC(=O)[C@H](C)NC(=O)[C@@H]1CCCN1)C(=O)N[C@@H](CO)C(=O)N[C@H](C(=O)N[C@@H](Cc1ccccc1)C(=O)O)[C@@H](C)O`
Marked response: 1

----------
Biological target: HLA-DR11 (DRB1*1101) (Homo sapiens, UniProt P01903+P01911, A100R/A169T/A87E/I96F/K41T/L162R/M171V/P40S/Q125H/Q178H/Q39Y/Q99D/R42S/S66Y/T262R/V115G/W38E)
Assay: biochemical
Settings: competition with biotinylated tracer; 3 independent experiments; read-out: Binding activity DR11 (IC50)
No end group written: not given here.
Kindly state IC50 for each of the entries shown.
Numbers only, in nM.

KQFEELTLGEFLKLD [91-105, K Q F E E L T L G E F L K L D] = 2350
KKQFEELTLGEFLKL [peptide 90-104, K K Q F E E L T L G E F L K L] = 2350
GEFLKLDRERAKNKI [99-113, G E F L K L D R E R A K N K I] = 40

// below: IC50 requested for another sequence
Exam item: Give reported IC50 value for CAFLSVKKQFEELTL [peptide 84-98, C A F L S V K K Q F E E L T L]
Marked response: 10
